B1: tRNA (parent)
chain: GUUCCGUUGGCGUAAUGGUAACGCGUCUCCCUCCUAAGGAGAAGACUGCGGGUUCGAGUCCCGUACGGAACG

variants of: B1; test: yeast fitness relative to wild type (ratio to wild type); higher = fitter; tRNA-Arg(CCU), competitive growth, 37 C, YPD
This sample holds only a part of the variants without activity.
For each entry below, report its yeast fitness value.

Some variants with known yeast fitness results, for comparison:
{"columns": ["sequenceContent", "yeast fitness"],
 "data": [
  ["GUACGGUUGGCGUAAUGGUAACGCGUCUCCCUCCUAAGGAGAAGACUGCGGGUUCUAGUCCCGUACGGAACG", "≤ 0.5"],
  ["GUUAUGUUGGCGUAAUGGUAAUGCGUCUCCCUCAUAAGGAGAAGACUGCGGGUUCGAGUCCGGUACGGAACG", "≤ 0.5"],
  ["GUUCCGUUGGCGGAAUGGUAACGCGUCUCCCUCCUAAGGAGAAGACUGCGGGUUCGAGUCACGUAAGGAACG", "≤ 0.5"]
]}

Hi! Can you tell me yeast fitness for each of these variants?
1. GUUCCGUUGGCGUAAUGGUAAUGCGUCUCCCUCCUAAGGAGAAGACGGCGGGUUCGAGUCCCGUACGGAACG
2. GUUCCGUUGGCGUAAUGGUAACGCGUCUCCCUCCUAAGGAGAAGACUGGGGGUUCGAGUCCCGUACGUAACG
3. GUUCCGUUGGUGUAAUGGUAACGCGUCACCCUGCUAAGGAGAAGACUGCGGGUUCGAGUCCCGUACGGAACG
4. GUUCCGUUGGCGUAAUGGUUACGCCUCUCCCUCCUAAGGAGAAGACUGCGGGUUCGAGUCCCGUUCGGCACG
5. GUCCCGUUGGCGUAAUGGUAACGCGUCUCCCUCCUAAGGAGUAGACUGCGGGUUCGAGUCCCAUACGGAACG
6. GUUCCGUUGGCGUAAUGGUCACGAGUAUCCCUCCUCAGGAGAAGACUGCGGGUUCGAGUCCCGUACGGAACG
7. GUUCCGUUGGCGUAAUGGUAACGCGUCUCCCUCGUAACGAGAAGACUGCGGGUUCGAGUCCCGUAAGGAUCG

Marked response:
0.611
0.808
0.619
0.587
≤ 0.5
≤ 0.5
≤ 0.5

I'm hoping you can list yeast fitness for every variant here, please.
1. GUUCCGUUGGCGUAAUGGUAACGCGUGUCCAUCCUAAGGAGAAGACUGCGGGUUCGUGUCCCGUACGGAACG
2. GUUCCGUUGGCGUAAUGGUCACGCGUCUCCCUCCUAAGGAGAAGAAUGGGGGUUCGAGUCCCAUACGGAACG
3. GUUCCGUUGACGGAAUGGUAAGGCGUCUCCCUCCUAAGGAGAAGAGUGCGGGUUCGAGUCCCGUACGGAACG
4. GUUCCGUUGGCGUAAUGGUAACGUGUCUCCCUCCUAAGGAGAAGAAUGCGGGUUCGGGUCCCGUACGGAACG
5. GUUCCGUUAGCGUAAUGGUAACGCGUCUCCCUCCUAAGAAGAAGGCUGCAGGUUCGAGUCCCGUACGGAACG
6. GUUCCGUUGGAGUAAUGGUAACGCGUCUCCCUCCUAAGGAGAAGACUGCGGGUUCGAGUCCAGUACGGAACG
7. GUUCCGUUGGUGUAAUGGUAACGCGUCUCCCUCCUAAGGAGAAGACUGCGGGUUCGAGUCCCGUACGUAACG
8. GUUCCGUUGGUGUAAUGGUAACGCGUCUCCCUCCUACGGAGGUGACUGCGGGUUCGAGUCCAGUACGGAACG

Marked response:
1. 0.573
2. ≤ 0.5
3. ≤ 0.5
4. 0.749
5. ≤ 0.5
6. ≤ 0.5
7. 0.898
8. ≤ 0.5
